Taken from PubChem BioAssay (Tox21).

# TARGET_OF_ASSAY: Cytochrome P450 2C19 (Homo sapiens)
# RUN_DESCRIPTION: Cytochrome P450 Family 2 Subfamily C Member 19 (CYP2C19) small molecule antagonists: luciferase reporter qHTS assay (AID 1671197); note: nearly all actives have a fitted effect of over 65% in size
# MEASUREMENT_CONTEXT: P450-Glo CYP2C19 enzyme, luciferin luminescence, 1 h; series mostly up to 115 µM
Records with an inconclusive call do not appear. The source made the active and inactive calls. Calls come from the whole dose curve; as a rule, active = well fitted inhibition curve with a large enough effect in the repeat runs; inconclusive = weak or mixed curves; inactive = no such curve, though single readings can be large or run the other way.
Use one of these outcomes when replying: active, inactive

Solved cases (4 shown):
{"columns": ["MOLECULE", "QUALITATIVE_LABEL"],
 "data": [
  ["CCN[C@H](C)Cc1cccc(C(F)(F)F)c1", "inactive"],
  ["CNC(=O)NC(O)C(Cl)(Cl)Cl (stereo not drawn)", "inactive"],
  ["CCC1(c2ccccc2)C(=O)N(COC)C(=O)N(COC)C1=O", "active"],
  ["O=c1[nH]oc2c1CCNC2", "inactive"]
]}

Prompt line: Look up the recorded call for O=C(CCl)NCO in this test.
Response line: inactive

Prompt line: How about this molecule: Cc1ccc(Cl)c(O)c1
Response line: inactive

Prompt line: How about this molecule: COc1cccc([C@@]2(O)CCCC[C@@H]2CN(C)C)c1
Response line: inactive

Prompt line: How about this molecule: CCOC(=O)N(C)N=O
Response line: inactive

Prompt line: How about this molecule: CCC(CC)(CNC(=O)CCCO)c1cccc(OC)c1
Response line: active

Prompt line: How about this molecule: CCN(CCO)CCn1c(Cc2ccccc2)nc2c1c(=O)n(C)c(=O)n2C
Response line: inactive

Prompt line: How about this molecule: COc1cc(CCN)cc(OC)c1OC
Response line: inactive

Prompt line: How about this molecule: C/C=C/CC#N
Response line: inactive

Prompt line: How about this molecule: CCC1(c2ccccc2)CCC(=O)NC1=O (stereo not drawn)
Response line: active

Prompt line: How about this molecule: CC(C)(O)C(Cl)(Cl)Cl
Response line: inactive

Prompt line: How about this molecule: NCC1(CC(=O)O)CCCCC1
Response line: inactive

Prompt line: How about this molecule: CC(C)[N+](C)(CCC(C(N)=O)(c1ccccc1)c1ccccc1)C(C)C
Response line: inactive
